Test system: MCF7
Assay: Anticancer activity against human MCF7 cells assessed as cell viability at 30 uM after 72 hrs by sulforhodamine B assay relative to control
Format: functional
Settings: MCF7, 72 h, read-out: Activity
reportedEndpoint: viability at 30 µM (%)
Respond numerically; units are % and should not be typed.

Ask: // viability at 30 µM lookup, key: COc1cccc(C(=O)CC2C(C#N)=C(N)Oc3c(OC)cc(Br)cc32)c1 (centres undefined)
Reply: 33.9

New cases:
Ask: // viability at 30 µM lookup, key: COC(=O)C1=C(N)Oc2c(OC)cc(Br)cc2C1CC(=O)c1cccc(OC)c1 (centres undefined)
Reply: 94.9

Ask: // viability at 30 µM lookup, key: COC(=O)C1=C(N)Oc2ccc(Br)cc2C1CC(=O)c1ccccc1 (centres undefined)
Reply: 41.3

Ask: // viability at 30 µM lookup, key: COc1cc(Br)cc(/C=C/C(=O)c2ccc(C)cc2)c1O
Reply: 61.5

====

Tested on: MCF7
Test: Anticancer activity against human MCF7 cells assessed as cell viability at 30 uM after 72 hrs by sulforhodamine B assay relative to control
Assay type: functional
Conditions: MCF7, 72 h, read-out: Activity
reportedEndpoint: viability at 30 µM (%)
Respond numerically; units are % and should not be typed.

Solved cases below.
Ask: // viability at 30 µM lookup, key: COc1cc(Br)cc(/C=C/C(=O)c2ccc(Br)cc2)c1O
Reply: 48.3

Ask: // viability at 30 µM lookup, key: COc1ccc(O)c(/C=C/C(=O)c2ccc(Cl)cc2)c1
Reply: 29.3

Ask: // viability at 30 µM lookup, key: COc1cc(Br)cc2c1OC(N)=C(C#N)C2CC(=O)c1ccc(C)cc1 (stereo unspecified)
Reply: 52.8

Ask: // viability at 30 µM lookup, key: COC(=O)C1=C(N)Oc2ccc(Br)cc2C1CC(=O)c1ccc(Br)cc1 (stereo unspecified)
Reply: 34.8

Ask: // viability at 30 µM lookup, key: COc1cccc(C(=O)/C=C/c2cc(Br)cc(OC)c2O)c1
Reply: 63.1

Here is another compound to look at.
Ask: // viability at 30 µM lookup, key: N#CC1=C(N)Oc2c(F)cc(F)cc2C1CC(=O)c1ccccc1 (stereo unspecified)
Reply: 76.9

====

Tested on: MCF7
Experiment: Anticancer activity against human MCF7 cells assessed as cell viability at 30 uM after 72 hrs by sulforhodamine B assay relative to control
Type: functional
Conditions: MCF7, 72 h, read-out: Activity
reportedEndpoint: viability at 30 µM (%)
Respond numerically; units are % and should not be typed.

Solved cases below.
Ask: // viability at 30 µM lookup, key: COc1cccc(C(=O)/C=C/c2cc(Br)ccc2O)c1
Reply: 28.3

Ask: // viability at 30 µM lookup, key: N#CC1=C(N)Oc2ccc(Br)cc2C1CC(=O)c1ccc(Br)cc1 (centres undefined)
Reply: 34.2

Ask: // viability at 30 µM lookup, key: Cc1ccc(C(=O)CC2C(C#N)=C(N)Oc3ccc(Cl)cc32)cc1 (centres undefined)
Reply: 49

New cases:
Ask: // viability at 30 µM lookup, key: COc1cccc(C(=O)CC2C(C#N)=C(N)Oc3ccc(Br)cc32)c1 (centres undefined)
Reply: 34.4

Ask: // viability at 30 µM lookup, key: COC(=O)C1=C(N)Oc2c(OC)cc(Br)cc2C1CC(=O)c1ccc(Br)cc1 (centres undefined)
Reply: 31.9

Ask: // viability at 30 µM lookup, key: COC(=O)C1=C(N)Oc2c(OC)cccc2C1CC(=O)c1ccc(Cl)cc1 (centres undefined)
Reply: 63.8

Ask: // viability at 30 µM lookup, key: COc1cc(Br)cc(/C=C/C(=O)c2ccccc2)c1O
Reply: 28.1

Ask: // viability at 30 µM lookup, key: COc1cc(Br)cc2c1OC(N)=C(C#N)C2CC(=O)c1ccccc1 (centres undefined)
Reply: 36.7

====

// reported pIC50 for each item listed
Tested on: MCF7
Assay: Antiproliferative activity against human MCF7 cells after 72 hrs in presence of doxorubicin by sulforhodamine B assay
Format: functional, cell-based
Conditions: MCF7, 72 h
A value of pIC50 is the negative decimal logarithm of a concentration given in moles per litre.

Ask: // pIC50 lookup, key: COc1cccc(C(=O)CC2C(C#N)=C(N)Oc3c(OC)cc(Br)cc32)c1 (centres undefined)
Reply: 6.96

Ask: // pIC50 lookup, key: Cc1ccc(C(=O)/C=C/c2cc(Cl)ccc2O)cc1
Reply: 6.57

Ask: // pIC50 lookup, key: O=C(/C=C/c1cc(Br)ccc1O)c1ccc(Br)cc1
Reply: 6.55

Here is another compound to look at.
Ask: // pIC50 lookup, key: COc1cccc(C(=O)/C=C/c2cc(Br)ccc2O)c1
Reply: 6.38

====

// reported IC50 for each item listed
Tested on: MCF-10A
Experiment: Cytotoxicity against human MCF10A cells after 72 hrs in presence of doxorubicin by sulforhodamine B assay
Assay type: cell-based
Respond numerically; units are nM and should not be typed.

Ask: Given the entry COc1cccc(C(=O)CC2C(C#N)=C(N)Oc3c(OC)cc(Br)cc32)c1 (centres undefined) , what IC50 was observed with MCF-10A?
Reply: 1580

Ask: Given the entry Cc1ccc(C(=O)/C=C/c2cc(Cl)ccc2O)cc1 , what IC50 was observed with MCF-10A?
Reply: 1100

Here is another compound to look at.
Ask: Given the entry O=C(/C=C/c1cc(Br)ccc1O)c1ccc(Br)cc1 , what IC50 was observed with MCF-10A?
Reply: 15100

====

// reported selectivity ratio for each item listed
Test: Selectivity index, ratio of IC50 for human MCF10A cells in presence of doxorubicin to IC50 for human MCF7 cells in presence of doxorubicin
Format: toxicity
Settings: MCF10A cells and MCF7 cells, read-out: Ratio IC50
// print number alone

Solved cases below.
Ask: // selectivity ratio lookup, key: O=C(/C=C/c1cc(Br)ccc1O)c1ccc(Br)cc1
Reply: 53

Ask: // selectivity ratio lookup, key: COc1cccc(C(=O)CC2C(C#N)=C(N)Oc3c(OC)cc(Br)cc32)c1 (centres undefined)
Reply: 13.4

New cases:
Ask: // selectivity ratio lookup, key: Cc1ccc(C(=O)/C=C/c2cc(Cl)ccc2O)cc1
Reply: 3.07

====

// reported IC50 for each item listed
Test system: MCF-10A
Assay: Cytotoxicity against human MCF10A cells after 72 hrs by sulforhodamine B assay
Type: cell-based
Could you kindly put the unit after your number?

Solved cases below.
Ask: // IC50 lookup, key: COc1cc(Br)cc(/C=C/C(=O)c2ccc(Cl)cc2)c1O
Reply: 12.1 µM

Ask: // IC50 lookup, key: COc1cccc(C(=O)CC2C(C#N)=C(N)Oc3c(OC)cc(Br)cc32)c1 (centres undefined)
Reply: 18.9 µM

Ask: // IC50 lookup, key: O=C(/C=C/c1cc(Br)ccc1O)c1ccc(Br)cc1
Reply: 29.3 µM

Ask: // IC50 lookup, key: COc1cccc(C(=O)/C=C/c2cc(Br)ccc2O)c1
Reply: 40.6 µM

New cases:
Ask: // IC50 lookup, key: COc1cccc(C(=O)CC2C(C#N)=C(N)Oc3ccc(Br)cc32)c1 (centres undefined)
Reply: 18.9 µM

Ask: // IC50 lookup, key: Cc1ccc(C(=O)/C=C/c2cc(Cl)ccc2O)cc1
Reply: 24.2 µM

Ask: // IC50 lookup, key: Cc1ccc(C(=O)/C=C/c2cc(Br)ccc2O)cc1
Reply: 6.52 µM

Ask: // IC50 lookup, key: COc1cccc2c1C(=O)c1c(O)c3c(c(O)c1C2=O)C[C@@](O)(C(=O)CO)C[C@@H]3O[C@H]1C[C@H](N)[C@H](O)[C@H](C)O1
Reply: 1.54 µM

Ask: // IC50 lookup, key: N#CC1=C(N)Oc2ccc(Br)cc2C1CC(=O)c1ccc(Br)cc1 (centres undefined)
Reply: 14.7 µM

====

Tested on: MCF7
Test: Induction of apoptosis in human MCF7 cells assessed as increase in cleaved PARP level at IC50 after 24 hrs by Western blot analysis
Format: functional, cell-based
Active and inactive are the calls of the source. The rule behind the calls is not given here.
reportedEndpoint: Activity

Ask: // Activity lookup, key: O=C(/C=C/c1cc(Br)ccc1O)c1ccc(Br)cc1
Reply: Active

Ask: // Activity lookup, key: COc1cccc(C(=O)CC2C(C#N)=C(N)Oc3c(OC)cc(Br)cc32)c1 (centres undefined)
Reply: Active

Ask: // Activity lookup, key: COc1cccc(C(=O)/C=C/c2cc(Br)ccc2O)c1
Reply: Active

Ask: // Activity lookup, key: Cc1ccc(C(=O)/C=C/c2cc(Cl)ccc2O)cc1
Reply: Active

====

Experiment: Cytotoxicity against human MCF10A cells assessed as cell viability at 30 uM after 72 hrs by sulforhodamine B assay relative to control
Format: cell-based, MCF-10A
Conditions: read-out: Activity
// reported viability at 72 h, 30 µM for each item listed
Respond numerically; units are % and should not be typed.

Solved cases below.
Ask: // viability at 72 h, 30 µM lookup, key: COc1cccc(C(=O)/C=C/c2cc(Br)ccc2O)c1
Reply: 66.3

Ask: // viability at 72 h, 30 µM lookup, key: Cc1ccc(C(=O)/C=C/c2cc(Cl)ccc2O)cc1
Reply: 51.1

Ask: // viability at 72 h, 30 µM lookup, key: COc1cc(Br)cc(/C=C/C(=O)c2ccc(C)cc2)c1O
Reply: 148

Ask: // viability at 72 h, 30 µM lookup, key: Cc1ccc(C(=O)/C=C/c2cc(Br)ccc2O)cc1
Reply: 49.4

Ask: // viability at 72 h, 30 µM lookup, key: N#CC1=C(N)Oc2c(F)cc(F)cc2C1CC(=O)c1ccccc1 (stereo not given)
Reply: 128

Ask: // viability at 72 h, 30 µM lookup, key: COC(=O)C1=C(N)Oc2ccc(Br)cc2C1CC(=O)c1ccc(Br)cc1 (stereo not given)
Reply: 43.2

New cases:
Ask: // viability at 72 h, 30 µM lookup, key: COc1cccc(C(=O)CC2C(C#N)=C(N)Oc3c(OC)cc(Br)cc32)c1 (stereo not given)
Reply: 46.3

Ask: // viability at 72 h, 30 µM lookup, key: COc1cc(Br)cc(/C=C/C(=O)c2ccccc2)c1O
Reply: 40.7
